biological target: T1, SARS-COV-2 RBD (SARS-COV-2, UniProt P0DTC2 319-539); experiment: ELISA, RBD coated on plate
T1 construct: also called WT RBD
Provide the recorded EC50 for the entries that follow.
Quick reminder: number only, in ng/mL, skip the unit.

The reported EC50 of the binder C994 (antibody, V domains shown) VH: QVQLQESGPGLVKPSGTLSLTCAVSGVSISNTNWWNWVRQPPGKGLEWIGEIYHTGSARYNPSLRSRVTISVDKSKNQFSLRLNSATAADTAIYYCARAQTPEFGELLYWGQGALVTVSS VL: DIQMTQSPSSLSASVGDRVTITCRASQSITDHLNWYQQKPGKAPKLLIYAASSLQTGVPSRFSGSGSETDFTLTISTLQPEDFATYYCQQSYGPPTYSFGQGTKLEIK was 2.09

The reported EC50 of the binder C993 (antibody, V domains shown) VH: EVQLLESGGGLVQPGGSLRLSCAASGFPFSIYAMSWVRQAPGKGLEWVSGMRGTTGTTYYADSVKGRFAISRDNSKNMLHLQMNSLRAEDTAVYYCAKSDHGDYVIGAFDIWGQGTMVTVSS VL: QSALTQPPSASGSPGQSVTISCTGTSGDVGGYNYVSWYQQHPGKAPKLMIYEVSKRPSGVPDRFSGSKSGNTASLTVSGLQAEDEADYYCNSYAGSNNWVFGGGTKLTVL was 2.29

The reported EC50 of the binder C984 (antibody, V domains shown) VH: QVQLVQSGTEVKKPGDSVQVSCKTSGYSFTGYYIHWVRQAPGQGLEWMGRINPNSGGTNYAQKFQGRVIMTRDTSITTAFMELTRLRYDDTAVYFCAREPIEGVIGGMIVNYYYMDVWGRGTTVTVSS VL: QSALTQPASVSGSPGQSITISCTGTSSDVGGYYYVSWYQQHPGKAPKLMIYDVSSRPSGVSNRFSGSKSGNTASLTISGLQAEDEADYYCSSYTSSNTLVVFGGGTKLTVL was 2.76

The reported EC50 of the binder C1040 (antibody, V domains shown) VH: QVQLVESGGGVVQPGRSLRLSCAASGFSFINYNMHWVRQAPGKGLEWVAVIWYDGSNKYYADSVKGRFTISRDNSKNTLYLQMNSLRVEDTAVYYCARDPAITEAEIDYWGQGTLVTVSS VL: DVVMTQSPLSLPVTLGQAASISCRSSQSLVHSDGNTYLNWFQQRPGQSPRRLIYRVSNRDSGVPDRFSASGSGTDFTLKISRVEAEDVGVYYCMQGTHWPWTFGQGTKVEIK was 2.08

The reported EC50 of the binder C1058 (antibody, V domains shown) VH: EVQLVESGGGLVQPGGSLRLSCAASGIIVSSNYMNWVRQVPGKGLEWVSVLYSGGSTFYADSVRGRFTISRDNSKNTLFLQMNSLRPEDTAVYYCARDFREGAFDIWGQGTMVTV VL: DIQLTQSPSFLSASVGDRVTITCRASQGISSYLAWYQQKPGKAPNLLIYAASTLQSGVPSRFSGSGSGTDFTLTISSLQPEDFATYYCQQLNSYSPLFGQGTRLEIK was 2.13

Cited source for all entries: patent US20240218057A1
